Tested on: P94_40
experiment_summary: qHTS profiling for inhibitors of Plasmodium falciparum proliferation (AID 504749); further: nearly all actives have a fitted effect of over 60% in size
experimental_conditions: P. falciparum in erythrocytes, SYBR Green DNA, 72 h; series mostly up to 28.7 µM
Records with an inconclusive call do not appear. Calls of active or inactive are those of the source. The call rests on the fitted dose curve; in most records, active means well fitted inhibition curve with a large enough effect; inconclusive means small, poorly fitted or top-dose-only effect; inactive means flat fitted curve, though single readings scatter.
Choose one outcome from this list and give only that: active, inactive

Check out these entries, answers already filled in.
{"compound": "COCC(=O)O[C@]1(CCN(C)CCCc2nc3ccccc3[nH]2)CCc2cc(F)ccc2[C@@H]1C(C)C", "group_label": "active"}
{"compound": "C[N+](C)(C)CCOC(=O)CCC(=O)OCC[N+](C)(C)C", "group_label": "inactive"}
{"compound": "Cc1ccc(=O)n(-c2ccccc2)c1", "group_label": "inactive"}
{"compound": "NC/C=C/C(=O)O", "group_label": "inactive"}
{"compound": "CCCCNc1ccc(C(=O)OCCN(C)C)cc1", "group_label": "inactive"}

Exercise: Please let me know the test result on file for C[n+]1cc2c3c(ccc2c2ccc4cc5c(cc4c21)OCO5)OCO3 .
Key: inactive

----------
Test system: Zika virus NS2B-NS3 protease (unlinked)
experiment_summary: Optimization of GU AMC qHTS for Zika virus inhibitors: Unlinked NS2B-NS3 protease assay (AID 1347151); further: nearly all actives have a fitted effect of over 80% in size
experimental_conditions: recombinant ZIKV NS2B-NS3 protease, fluorogenic AMC substrate; series mostly up to 52.5 µM
Source text: Avindra Nath, Ph.D., National Institute of Neurological Disorders and Stroke (NINDS), Bethesda, MD Radhakrishnan Padmanabhan, Ph.D., Georgetown University (GU), Washington D.C. Zika Virus causes congenital defects, including microcephaly and is associated with Guillain-Barre syndrome, eningoencephalitis and myelitis in infected adult. […]
Results filed as inconclusive are left out. Calls of active or inactive are those of the source. The call rests on the fitted dose curve; in most records, active means well fitted inhibition curve with a large enough effect; inconclusive means small, poorly fitted or top-dose-only effect; inactive means no such curve, though single readings can be large or run the other way.
Pick from active, inactive when you respond.

Below are worked cases with known answers.
{"molecule": "CCN(Cc1ccncc1)C(=O)C(CO)c1ccccc1 (stereo not drawn)", "group_label": "inactive"}
{"molecule": "CCn1cc(C(=O)O)c(=O)c2cc3c(cc21)OCO3", "group_label": "active"}
{"molecule": "O=C1CC2(CCCC2)CC(=O)N1CCCCN1CCN(c2ncccn2)CC1", "group_label": "inactive"}

From here, focus on the item given below.
Exercise: Please let me know the test result on file for c1cc(CN2CCCCC2)cc(OCCCNc2nc3ccccc3s2)c1 .
Key: inactive

----------
System: HEK293
experiment_summary: Cytotoxic Profiling of Annotated Libraries Using Quantitative High-Throughput Screening (AID 1296008); further: nearly all actives have a fitted effect of over 60% in size
experimental_conditions: Five cell lines viability, CellTiter-Glo ATP luminescence, 48-72 h
Inconclusive results are not listed. The source made the active and inactive calls. Calls follow the shape of the dose curve; as a rule, active = well fitted inhibition curve with a large enough effect; inconclusive = small, poorly fitted or top-dose-only effect; inactive = flat fitted curve, though single readings scatter.
I would appreciate it if you answered using one of these outcomes: yes = active, no = inactive

Example entries begin here.
{"compound": "COC(=O)C1=C(C)NC(C)=C(C(=O)OC(C)(C)CN(C)CCC(c2ccccc2)c2ccccc2)C1c1cccc([N+](=O)[O-])c1 (configuration not stated)", "tested_target": "HEK293", "group_label": "yes"}
{"compound": "Cc1ccc(Cl)c(Nc2ccccc2C(=O)O)c1Cl", "tested_target": "HEK293", "group_label": "no"}
{"compound": "CCN1CCC[C@H]1CNC(=O)c1c(O)c(Cl)cc(Cl)c1OC", "tested_target": "HEK293", "group_label": "no"}
{"compound": "C[C@]12C=CC(=O)C=C1CC[C@H]1[C@@H]3C[C@@H](O)[C@](O)(C(=O)CO)[C@@]3(C)C[C@H](O)[C@@]12F", "tested_target": "HEK293", "group_label": "no"}
{"compound": "C(=C\\c1ccccc1)/CN1CCN(C(c2ccccc2)c2ccccc2)CC1", "tested_target": "HEK293", "group_label": "yes"}

Exercise: Any idea what this test logged for C[C@]12CCC(=O)C=C1CC[C@@H]1[C@@H]2C(=O)C[C@@]2(C)[C@H]1CC[C@]2(O)C(=O)CO ?
Key: no

Exercise: Called result for O=C(O)CN(CCN(CC(=O)O)CC(=O)O)CCN(CC(=O)O)CC(=O)O
Key: no

Exercise: Recorded test call requested for C[N+](C)(C)CCOC(N)=O
Key: no
